From: ChEMBL document CHEMBL4414588

System: A-375
Test: Cytotoxicity against human A375 cells assessed as reduction in cell viability at 32 uM incubated for 72 hrs by CCK8 assay
Type: cell-based
Details: a-375, 72 h
property-name: Activity

Below: 8 molecules and their reported Activity.
>>> assay_result("CC(=O)Nc1ccc(O)c(C[C@]2(C)[C@@H](C)CC[C@]3(C)C(C)=CCC[C@@H]23)c1")
"Non-Toxic"
>>> assay_result("C=C1CCC[C@H]2[C@](C)(Cc3cc(O)cc4nc5n(c34)CCC5)[C@@H](C)CC[C@]12C")
"Non-Toxic"
>>> assay_result("C=C1CCC[C@H]2[C@](C)(Cc3cc(O)cc4nc(C)oc34)[C@@H](C)CC[C@]12C")
"Non-Toxic"
>>> assay_result("CC1=CCC[C@H]2[C@](C)(Cc3cc(O)cc4[nH]c(=O)oc34)[C@@H](C)CC[C@]12C")
"Non-Toxic"
>>> assay_result("CC1=CCC[C@H]2[C@](C)(Cc3cc(O)cc4nc5n(c34)CCC5)[C@@H](C)CC[C@]12C")
"Non-Toxic"
>>> assay_result("CC1=CCC[C@H]2[C@](C)(Cc3cc(N4CCCC4=O)ccc3O)[C@@H](C)CC[C@]12C")
"Non-Toxic"
>>> assay_result("CC1=CCC[C@H]2[C@](C)(Cc3cc(O)cc4c3oc(=O)n4C)[C@@H](C)CC[C@]12C")
"Non-Toxic"
>>> assay_result("CC1=CCC[C@H]2[C@](C)(Cc3cc(O)cc4ncoc34)[C@@H](C)CC[C@]12C")
"Non-Toxic"

Query: Please give the measured Activity for this molecule: CC1=CCC[C@H]2[C@](C)(Cc3cc(O)cc4nc(C)oc34)[C@@H](C)CC[C@]12C
Response: Non-Toxic

Query: Follow-up item: CC1=CCC[C@H]2[C@](C)(Cc3cc(NC(=O)CC(C)C)ccc3O)[C@@H](C)CC[C@]12C
Response: Non-Toxic

Query: Follow-up item: CC1=CCC[C@H]2[C@](C)(Cc3cc(-n4cccc4C=O)ccc3O)[C@@H](C)CC[C@]12C
Response: Non-Toxic

---

Biological target: Tyrosine-protein kinase JAK2 (Homo sapiens)
Test: Inhibition of JAK2 (unknown origin)
Calls of active or inactive are those of the source. The calls are words filed in the database; no cut-off is given here.
property-name: inhibition

>>> assay_result("CC(=O)Nc1ccc(O)c(C[C@]2(C)[C@@H](C)CC[C@]3(C)C(C)=CCC[C@@H]23)c1")
"inactive"
>>> assay_result("C=C1CCC[C@H]2[C@](C)(Cc3cc(O)cc4nc5n(c34)CCC5)[C@@H](C)CC[C@]12C")
"inactive"
>>> assay_result("C=C1CCC[C@H]2[C@](C)(Cc3cc(O)cc4nc(C)oc34)[C@@H](C)CC[C@]12C")
"inactive"

---

Target: Acetyl-CoA carboxylase 1 (Homo sapiens) (UniProt Q13085)
Assay: Inhibition of ACC1 (unknown origin)
Activity calls are given as the source filed them. The calls are words filed in the database; no cut-off is given here.
property-name: inhibition

>>> assay_result("CC1=CCC[C@H]2[C@](C)(Cc3cc(O)cc4c3oc(=O)n4C)[C@@H](C)CC[C@]12C")
"inactive"
>>> assay_result("CC1=CCC[C@H]2[C@](C)(Cc3cc(N4CCCC4=O)ccc3O)[C@@H](C)CC[C@]12C")
"inactive"
>>> assay_result("CC(=O)Nc1ccc(O)c(C[C@]2(C)[C@@H](C)CC[C@]3(C)C(C)=CCC[C@@H]23)c1")
"inactive"
